TARGET UNDER TEST: human EGFR WT (NIH/3T3 cells, EGF-induced) (Homo sapiens)
Sequence (P00533 25-1210): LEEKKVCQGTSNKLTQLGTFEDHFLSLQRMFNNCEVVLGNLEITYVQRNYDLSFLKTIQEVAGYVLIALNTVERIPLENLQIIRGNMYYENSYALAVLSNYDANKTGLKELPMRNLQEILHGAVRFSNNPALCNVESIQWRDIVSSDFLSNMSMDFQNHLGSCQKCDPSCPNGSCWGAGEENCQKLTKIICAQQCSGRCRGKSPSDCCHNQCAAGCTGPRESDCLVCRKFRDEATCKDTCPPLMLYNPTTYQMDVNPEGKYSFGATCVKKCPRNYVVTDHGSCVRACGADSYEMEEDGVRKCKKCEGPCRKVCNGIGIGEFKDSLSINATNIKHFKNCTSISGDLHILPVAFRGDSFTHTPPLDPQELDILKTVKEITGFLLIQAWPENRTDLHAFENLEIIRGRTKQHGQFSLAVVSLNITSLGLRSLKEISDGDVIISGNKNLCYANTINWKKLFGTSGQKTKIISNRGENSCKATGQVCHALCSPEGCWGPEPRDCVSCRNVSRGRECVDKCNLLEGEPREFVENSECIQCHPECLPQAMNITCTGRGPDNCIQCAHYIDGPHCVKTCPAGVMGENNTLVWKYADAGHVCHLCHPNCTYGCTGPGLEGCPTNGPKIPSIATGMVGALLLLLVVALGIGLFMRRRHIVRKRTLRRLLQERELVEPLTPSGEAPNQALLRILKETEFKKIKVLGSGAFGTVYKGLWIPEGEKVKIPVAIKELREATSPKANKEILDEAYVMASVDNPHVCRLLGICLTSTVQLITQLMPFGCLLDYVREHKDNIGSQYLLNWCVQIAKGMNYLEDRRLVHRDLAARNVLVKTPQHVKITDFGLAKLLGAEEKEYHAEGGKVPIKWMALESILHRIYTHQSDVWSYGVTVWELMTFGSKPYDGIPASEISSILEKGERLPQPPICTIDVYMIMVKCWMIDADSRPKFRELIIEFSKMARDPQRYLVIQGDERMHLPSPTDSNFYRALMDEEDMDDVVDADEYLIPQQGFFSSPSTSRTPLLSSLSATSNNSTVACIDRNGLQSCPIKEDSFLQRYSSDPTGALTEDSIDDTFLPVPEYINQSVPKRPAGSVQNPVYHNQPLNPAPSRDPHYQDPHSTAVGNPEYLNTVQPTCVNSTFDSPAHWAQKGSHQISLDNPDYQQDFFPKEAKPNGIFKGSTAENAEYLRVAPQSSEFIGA
ASSAY DETAILS: EGFR target modulation in engineered NIH/3T3 cell lines (phospho-EGFR Y1068 AlphaLISA), EGFR WT
Assay type: cell-based
RUN PARAMETERS: engineered NIH/3T3 cells, read-out: NIH3T3 IC50 (μM) EGFR (WT)
ENDPOINT LABEL: log10(IC50) (log10 of the value in µM)
Hello, just confirming the data are log10 of IC50 with units of µM.

Req: Quick check: log10(IC50) on human EGFR WT (NIH/3T3 cells, EGF-induced) (Homo sapiens), item Cc1cc(C(=O)Nc2nc3cccc(C)c3n2[C@@H]2CCCCN(C(=O)/C=C/CN(C)C)C2)ccn1 ?
Resp: -1.72

Req: Quick check: log10(IC50) on human EGFR WT (NIH/3T3 cells, EGF-induced) (Homo sapiens), item Cc1cc(C(=O)Nc2nc3cccc(C)c3n2[C@@H]2CCCCN(C(=O)/C=C/CN(C)C)C2)cc(C)n1 ?
Resp: -1.20

Req: Quick check: log10(IC50) on human EGFR WT (NIH/3T3 cells, EGF-induced) (Homo sapiens), item COc1ccc(C(=O)Nc2nc3cccc(C)c3n2C2CCCCN(C(=O)/C=C/CN(C)C)C2)cn1 (centres unmarked) ?
Resp: -1.24

Req: Quick check: log10(IC50) on human EGFR WT (NIH/3T3 cells, EGF-induced) (Homo sapiens), item C=CC(=O)N1CCOCC(n2c(NC(=O)c3cccc(C(F)(F)F)c3)nc3cccc(C)c32)C1 (centres unmarked) [Example 17-14] ?
Resp: 0.03

Give me log10(IC50) for each of these molecules, listed below.
1. C=CC(=O)N1CCCC[C@@H](n2c(NC(=O)c3ccnnc3)nc3cccc(Cl)c32)C1
2. Cc1cccc2nc(NC(=O)c3cccc(C(F)(F)F)c3)n([C@H]3COCCN(C(=O)/C=C/CN(C)C)C3)c12

Resp:
-0.69
0.78

Give me log10(IC50) for each of these molecules, listed below.
1. C=CC(=O)N1CCCC[C@@H](n2c(NC(=O)c3ccnnc3)nc3cccc(OC)c32)C1
2. C=CC(=O)N1CCCC[C@@H](n2c(NC(=O)c3cnnc(C)c3)nc3cc(CN4CCCC4)cc(C)c32)C1
3. Cc1cccc2nc(NC(=O)c3ccnc(OC(F)(F)F)c3)n([C@@H]3CCCCN(C(=O)/C=C/CN(C)C)C3)c12

Resp:
1: 0.29; 2: -0.55; 3: -1.33

Give me log10(IC50) for each of these molecules, listed below.
1. C=CC(=O)N1CCCC[C@@H](n2c(NC(=O)c3ccnc(C)c3)nc3cc(CN4CC[C@@H](F)C4)cc(C)c32)C1
2. C=CC(=O)N1CCCC[C@@H](n2c(NC(=O)c3ccccc3)nc3cccc(CN4CCS(=O)(=O)CC4)c32)C1
3. Cc1cccc2nc(NC(=O)c3cccc(C(F)(F)F)c3)n(C3CCCCN(C(=O)/C=C/CN(C)C)C3)c12 (centres unmarked)

Resp:
1: -1.08; 2: 0.46; 3: -1.24
